# TARGET_UNDER_TEST: human MGL from HeLa cells (Homo sapiens (Human), UniProt Q99685)
# Sequence (Q99685 whole entry): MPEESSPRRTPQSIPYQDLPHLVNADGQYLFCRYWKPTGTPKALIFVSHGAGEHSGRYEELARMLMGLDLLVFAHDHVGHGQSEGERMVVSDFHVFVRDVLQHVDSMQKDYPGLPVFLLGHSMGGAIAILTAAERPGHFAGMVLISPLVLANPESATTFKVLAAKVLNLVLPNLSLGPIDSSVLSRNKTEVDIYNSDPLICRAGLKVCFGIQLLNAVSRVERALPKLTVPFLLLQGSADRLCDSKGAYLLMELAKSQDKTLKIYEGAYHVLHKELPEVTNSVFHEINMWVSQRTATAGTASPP
# TEST_SUMMARY: MGL in vitro activity assay ([glycerol-1,3-3H]-oleoyl glycerol cleavage, activated carbon filter)
# Assay type: biochemical
# REPORTED_CONDITIONS: 300 nM [Glycerol-1,3-3H]-oleoyl glycerol, endogenously expressed MGL from HeLa cells, one hour incubation; read-out: MGL IC50
# Description: The assay consists of combining endogenously expressed MGL from HeLa cells with test compounds, adding[glycerol-1,3-^3H]-oleoyl glycerol, incubating for one hour, and then measuring the amount of cleaved[1,3-^3H]-glycerol that passes through an activated carbon filter. The amount of cleaved, tritiated glycerol passing through the carbon filter is proportional to the activity of the MGL enzyme in a particular well/test condition. […]
MEASUREMENT_KIND: IC50 (nM)

CC(C)c1cccc([C@H]2[C@@H]3CN(C(=O)[C@H]4C[C@]5(COC(=O)N5)C4)C[C@@H]32)c1 [Example 84] | 5.5
CC(C)c1cccc([C@]23C[C@H]2CN(C(=O)[C@H]2C[C@]4(COC(=O)N4)C2)C3)c1 (stereo in doubt) [Example 8] | 11
Cc1ccc(C23CC2CN(C(=O)[C@H]2C[C@]4(COC(=O)N4)C2)C3)cc1Cl (mixture of isomers) [Example 30] | 2.9
O=C1N[C@]2(CO1)C[C@H](C(=O)N1CCC3(c4ccc(OC(F)(F)F)cc4)CC3C1)C2 (mixture of isomers) [Example 54] | 2.5
Cc1ccc([C@H]2[C@@H]3CN(C(=O)[C@H]4C[C@]5(COC(=O)N5)C4)C[C@@]32C)cc1C (racemic) [Example 102] | 23

A. Cc1ccccc1C12CC1CN(C(=O)[C@H]1C[C@]3(COC(=O)N3)C1)C2 (mixture of isomers) [Example 20]
B. CC(C)(C)c1ccc([C@H]2[C@@H]3CN(C(=O)[C@H]4C[C@]5(CCC(=O)N5)C4)C[C@@H]32)cc1 [Example 83]
Form field 'greater IC50' accepts A or B ; which applies? Answer format: the label of the selected item.
A
(A: 6.5 nM, B: 2.9 nM)

----------
# TARGET_UNDER_TEST: human MGL from HeLa cells (Homo sapiens (Human), UniProt Q99685)
# TEST_SUMMARY: MGL in vitro activity assay ([glycerol-1,3-3H]-oleoyl glycerol cleavage, activated carbon filter)
# Type: biochemical
# REPORTED_CONDITIONS: 300 nM [Glycerol-1,3-3H]-oleoyl glycerol, endogenously expressed MGL from HeLa cells, one hour incubation; read-out: MGL IC50
MEASUREMENT_KIND: IC50 (nM)

CC(C)c1cccc(C23CC2CN(C(=O)[C@H]2C[C@]4(COC(=O)N4)C2)C3)c1 (mixture of isomers) | 6.9
CC(C)(C)c1ccc([C@]23C[C@H]2CN(C(=O)[C@H]2C[C@]4(CCC(=O)N4)C2)C3)cc1 (stereo in doubt) | 12
O=C1N[C@]2(CO1)C[C@H](C(=O)N1CC[C@]3(c4ccccc4)C[C@@H]3C1)C2 | 9.6
Cc1ccc([C@H]2[C@@H]3CN(C(=O)[C@H]4C[C@]5(COC(=O)N5)C4)C[C@@]32C)cc1C(F)(F)F (racemic) | 6
Cc1cccc([C@]23CCN(C(=O)[C@H]4C[C@]5(COC(=O)N5)C4)C[C@H]2C3)c1 (stereo in doubt) | 2.8
O=C1N[C@]2(CO1)C[C@H](C(=O)N1CC[C@@]3(c4cccc(OC(F)(F)F)c4)C[C@H]3C1)C2 (stereo in doubt) | 0.52
O=C1N[C@]2(CO1)C[C@H](C(=O)N1CC3CC3(c3cccc(C4CC4)c3)C1)C2 (mixture of isomers) | 5.6
CC1(c2ccc(C34CC3CN(C(=O)[C@H]3C[C@]5(CCC(=O)N5)C3)C4)cc2)CC1 (mixture of isomers) | 9.5

P. CC(C)(C)c1cccc([C@H]2[C@@H]3CN(C(=O)[C@H]4C[C@]5(COC(=O)N5)C4)C[C@@H]32)n1
Q. Cc1ccc(C23CC2CN(C(=O)[C@H]2C[C@]4(COC(=O)N4)C2)C3)cc1F (mixture of isomers)
R. O=C1N[C@]2(CO1)C[C@H](C(=O)N1C[C@@H]3[C@H](C1)[C@H]3c1ccc(C(F)(F)F)cc1)C2
S. O=C1N[C@]2(CO1)C[C@H](C(=O)N1CCC3(c4ccccc4)CC3C1)C2 (mixture of isomers)
T. O=C1N[C@]2(CO1)C[C@H](C(=O)N1CCC3(c4ccccc4)C(Cl)C3C1)C2 (mixture of isomers)
Write the entries in order, lowest recorded IC50 first. A ranking is expressed here by listing the labels in the requested order.
P, Q, S, R, T
(P: 5.2 nM, Q: 10 nM, S: 20 nM, R: 33 nM, T: 200 nM)
